- CONDITION_SET: a range is the spread between reports
This listing pairs molecules with measured melting point.

Answered examples (2):
>  <MOLECULE>
CCOc1ccc(OCC)cc1

>  <OBSERVED_RESULT>
70 to 72 °C

$$$$
>  <MOLECULE>
CN1C(=O)OC(C)(C)C1=O

>  <OBSERVED_RESULT>
46 to 47 °C

$$$$

Query: Value lookup for melting point; key = CC(=O)NC12CC3CC(CC(C3)C1)C2
Result: 148 °C

Query: Tell me the measured melting point of O=C1CCOc2ccccc21 , please.
Result: 36.5 to 38 °C

----------
Each entry below carries its reported melting point.
- CONDITION_SET: a range is the spread between reports

Example compounds with recorded melting point:
>  <COMPOUND>
CC(C)(C)OC(=O)CCC(Cl)(Cl)Cl

>  <OBSERVED_RESULT>
20 °C

$$$$
>  <COMPOUND>
CC(C)C(C)C(C)C

>  <OBSERVED_RESULT>
-110 to -109 °C

$$$$
>  <COMPOUND>
COCCOCCOC

>  <OBSERVED_RESULT>
-68 to -64 °C

$$$$
>  <COMPOUND>
Fc1c(F)c(F)c(-c2c(F)c(F)c(F)c(F)c2F)c(F)c1F

>  <OBSERVED_RESULT>
67 to 68 °C

$$$$
>  <COMPOUND>
CC(C)CCCl

>  <OBSERVED_RESULT>
-104 °C

$$$$

Query: melting point lookup needed for COC(=O)c1cc(OC)cc(OC)c1 , thanks.
Result: 42 to 43 °C

Query: May I ask what melting point has been recorded for c1cnc2[nH]ccc2c1 ?
Result: 105 to 106 °C

Query: Dear colleague, I am looking for the recorded melting point of the following compound: Cc1c(C)c(C)c(Br)c(C)c1C
Result: 162 to 165 °C

Query: What does the record list as melting point for COc1ccc(C(=O)O)cc1OC ?
Result: 180 to 181 °C

----------
- CONDITION_SET: a range is the spread between reports
Measured melting point of individual entries

Recorded results for 10 compounds are shown here.
>  <COMPOUND>
OCC1CCCNC1 (stereo not given)

>  <melting point>
60 to 61 °C

$$$$
>  <COMPOUND>
C=CCCCCCCCC

>  <melting point>
-66.3 to -66 °C

$$$$
>  <COMPOUND>
O=S(=O)(Cl)c1cccs1

>  <melting point>
28 to 30 °C

$$$$
>  <COMPOUND>
C=Cc1ccccc1Cl

>  <melting point>
-63.1 to -63 °C

$$$$
>  <COMPOUND>
O=C(Cl)c1cccc(C(=O)Cl)c1

>  <melting point>
43.5 to 44 °C

$$$$
>  <COMPOUND>
OCc1cccc(O)c1

>  <melting point>
71 to 73 °C

$$$$
>  <COMPOUND>
N#CSCSC#N

>  <melting point>
105 to 106 °C

$$$$
>  <COMPOUND>
Cc1cccc(O)c1O

>  <melting point>
65 to 68 °C

$$$$
>  <COMPOUND>
CC1CCC(=O)CC1

>  <melting point>
-41 to -40.6 °C

$$$$
>  <COMPOUND>
NC(=O)c1ccccc1O

>  <melting point>
140 to 142 °C

$$$$

Query: Given the entry C=CC=C , report its measured melting point.
Result: -113 to -109 °C

Query: Requested field: melting point. Item: CCCCCCCCCCCCCCCCS
Result: 19 to 21 °C

Query: // lookup melting point for N#Cc1cc([N+](=O)[O-])c(Cl)c([N+](=O)[O-])c1
Result: 141 °C

Query: Look at this compound and give its reported melting point. O=c1cc(-c2ccccc2)oc2cc(O)cc(O)c12
Result: 286 to 287 °C

Query: Look at this compound and give its reported melting point. Cc1ccc(CO)cc1
Result: 59 to 61.5 °C

Query: # melting point lookup, item CC(C)=C(C)C
Result: -75 to -74 °C

Query: Bench note: what melting point did CC(=O)c1ccc(Br)cc1 show?
Result: 50.5 to 51 °C

Query: Form field: reported melting point of CC(=O)Nc1c(C)cccc1C
Result: 181 to 183 °C

Query: Dear colleague, I am looking for the recorded melting point of the following compound: N#Cc1ccc(O)cc1
Result: 112 °C

Query: Would you kindly share the measured melting point for c1ccc2n[nH]nc2c1 ?
Result: 97 °C

Query: Which measured melting point value corresponds to O=C1OC(=O)C2C3C=CC(C3)C12 (stereo not given) ?
Result: 164 to 166 °C

Query: # input compound: O=C(Oc1ccccc1)c1ccccc1C(=O)Oc1ccccc1 ; wanted: its melting point
Result: 73 to 75 °C

Query: What value of measured melting point is listed for c1ccc(CN(Cc2ccccc2)c2ccccc2)cc1 ?
Result: 69 to 70 °C

----------
- CONDITION_SET: a range is the spread between reports
REPORTED_PROPERTY: melting point

Below, 8 compounds whose answers are already recorded.
>  <COMPOUND>
Oc1ccccc1C=Nc1ccccc1

>  <melting point>
47.5 to 51 °C

$$$$
>  <COMPOUND>
CC(Br)C(Br)C(=O)O (stereo unspecified)

>  <melting point>
85 to 87 °C

$$$$
>  <COMPOUND>
ClCCCCCl

>  <melting point>
-38 to -37 °C

$$$$
>  <COMPOUND>
CCNC(=S)NCC

>  <melting point>
77 to 78 °C

$$$$
>  <COMPOUND>
C/C=C/CC(C)C

>  <melting point>
-124 °C

$$$$
>  <COMPOUND>
C=Cc1ccc(O)cc1

>  <melting point>
73 to 73.5 °C

$$$$
>  <COMPOUND>
O=[N+]([O-])c1ccc(O)c(F)c1

>  <melting point>
119 to 121 °C

$$$$
>  <COMPOUND>
CC(=O)CCC=C(C)C

>  <melting point>
-67.1 to -67 °C

$$$$

// moving on: another record for melting point
Query: melting point; subject: CCc1ccc2c(c1)C(=O)c1ccccc1C2=O
Result: 109 to 110 °C

----------
- CONDITION_SET: a range is the spread between reports
REPORTED_PROPERTY: melting point

Observe how each entry below is paired with its result.
>  <MOLECULE>
COc1ccccc1OCC(O)CO (configuration not stated)

>  <melting point>
78.5 to 81 °C

$$$$
>  <MOLECULE>
O=C1CCCCCN1

>  <melting point>
69 to 70 °C

$$$$
>  <MOLECULE>
O=C(O)Cc1cccc2ccccc12

>  <melting point>
130 to 135 °C

$$$$
>  <MOLECULE>
COc1cc(Cl)ccc1C(=O)O

>  <melting point>
146 to 147 °C

$$$$
>  <MOLECULE>
O=S(=O)(c1ccccc1)c1ccc(Cl)cc1

>  <melting point>
92 to 94 °C

$$$$

Query: Query (molecule): CCCCCCC(C)CC (configuration not stated) ; field requested: melting point
Result: -85 to -84.8 °C

Query: Fill in: melting point of C=Cc1ccc(F)cc1 is ___
Result: -36 to -34.5 °C

Query: melting point; subject: CC1CC(C)C(C)C1 (configuration not stated)
Result: -133 to -131 °C

Query: Entry NCCCCCCO : reported melting point = ?
Result: 56 to 57 °C

Query: Reported melting point, molecule Cc1cccc2c1ccc1cc(C(C)C)ccc12 : ____
Result: 99 to 101 °C

Query: Item under review: Brc1cscc1Br . Reported melting point?
Result: 4.5 to 5 °C

Query: Bench note: what melting point did O=C(O)C(F)(F)C(F)(F)C(F)(F)C(F)(F)C(F)(F)C(F)(F)C(F)(F)F show?
Result: 54.3 to 55.5 °C

Query: I have this molecule here, COc1ccc(C=O)c2ccccc12 , and I need its recorded melting point.
Result: 34 to 34.8 °C

Query: # input molecule: Cc1ccc(S(=O)(=O)F)cc1 ; wanted: its melting point
Result: 41 to 41.5 °C

Query: Which melting point value is on record for CCC(CC)CC ?
Result: -119 °C

----------
// values below are reported melting point
- CONDITION_SET: a range is the spread between reports

Query: Requested field: melting point. Item: CCCCCC(=O)OC(=O)CCCCC
Result: -41 to -40 °C

Query: Sample CCC1CCCCC1 — what was its melting point?
Result: -111 °C

Query: Requested field: melting point. Item: CC(=O)OCC(C(OC(C)=O)c1ccccc1)[N+](=O)[O-] (configuration not stated)
Result: 70 to 71 °C

----------
- CONDITION_SET: a range is the spread between reports
REPORTED_PROPERTY: melting point

Worked examples, 7 molecules total:
>  <MOLECULE>
O=C(O)C(O)c1ccc(Br)cc1 (stereo not drawn)

>  <REPORTED_PROPERTY>
melting point

>  <OBSERVED_RESULT>
117 to 118 °C

$$$$
>  <MOLECULE>
O=C(O)c1cccc(C(F)(F)F)c1

>  <REPORTED_PROPERTY>
melting point

>  <OBSERVED_RESULT>
105 to 106 °C

$$$$
>  <MOLECULE>
CCCCCCCCCCCCCC(C)=O

>  <REPORTED_PROPERTY>
melting point

>  <OBSERVED_RESULT>
39 to 39.5 °C

$$$$
>  <MOLECULE>
O=C(O)c1cccc([N+](=O)[O-])c1C(=O)O

>  <REPORTED_PROPERTY>
melting point

>  <OBSERVED_RESULT>
210 to 212 °C

$$$$
>  <MOLECULE>
CC(=O)c1ccc(I)cc1

>  <REPORTED_PROPERTY>
melting point

>  <OBSERVED_RESULT>
83 to 86 °C

$$$$
>  <MOLECULE>
Oc1ccc(Cl)cc1Cc1ccccc1

>  <REPORTED_PROPERTY>
melting point

>  <OBSERVED_RESULT>
48 to 48.5 °C

$$$$
>  <MOLECULE>
CC(Br)C(C)(Br)Br (stereo not drawn)

>  <REPORTED_PROPERTY>
melting point

>  <OBSERVED_RESULT>
1.8 to 2 °C

$$$$

# ---- query molecule ----
Query: Please give the measured melting point for this molecule: CC1CC=CC1
Result: -161 °C
